parental ratio: recorded values
target: CD28 (human) (UniProt P10747); test: flow cytometry, Expi293F cells transfected with CD28
Lab note: jot down the number only; don't add units.

binder	parental ratio
CD80 A91G/F92L/F108L/I118V/T120S ECD-Fc (Fc fusion) VIHVTKEVKEVATLSCGHNVSVEELAQTRIYWQKEKKMVLTMMSGDMNIWPEYKNRTIFDITNNLSIVILALRPSDEGTYECVVLKYEKDGLKREHLAEVTLSVKADLPTPSISDFEVPSSNIRRIICSTSGGFPEPHLSWLENGEELNAINTTVSQDPETELYAVSSKLDFNMTTNHSFMCLIKYGHLRVNQTFNWNTTKQEHFPDN	0.53
CD80 L70Q/A91G/T110A/I118V/T120S/T130A ECD-Fc (Fc fusion) VIHVTKEVKEVATLSCGHNVSVEELAQTRIYWQKEKKMVLTMMSGDMNIWPEYKNRTIFDITNNLSIVIQALRPSDEGTYECVVLKYEKDGFKREHLAEVTLSVKADFPAPSISDFEVPSSNIRRIICSASGGFPEPHLSWLENGEELNAINTTVSQDPETELYAVSSKLDFNMTTNHSFMCLIKYGHLRVNQTFNWNTTKQEHFPDN	0.09

Below: the item to evaluate.
Exam item: Give reported parental ratio value for CD80 A91G/L102S ECD-Fc (Fc fusion) VIHVTKEVKEVATLSCGHNVSVEELAQTRIYWQKEKKMVLTMMSGDMNIWPEYKNRTIFDITNNLSIVILALRPSDEGTYECVVLKYEKDGFKREHLAEVTSSVKADFPTPSISDFEIPTSNIRRIICSTSGGFPEPHLSWLENGEELNAINTTVSQDPETELYAVSSKLDFNMTTNHSFMCLIKYGHLRVNQTFNWNTTKQEHFPDN
Marked response: 0.06
